- experimentSummary: chemical genetic growth profiling, strain panel (AID 1159580);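 note: tested at 20 µM; growth read once vehicle control cultures reached saturation at 30 °C; 1 = growth at the plate median or of vehicle wells; lower values mean less growth of the strain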
- testParameters: S. cerevisiae deletion strains, growth OD, locus YNL153C, strain GIM3
Out of some 5,500 compounds screened, about 2,000 (36%) were called active. Roughly 18% stayed inconclusive and do not appear here. Cut-off read from the data, not from the text of the source: active = normalized growth mostly below about 0.91 (no sharp cut-off); inconclusive = no clear call, values can overlap the other calls; inactive = mostly above about 0.92. Some of the results follow.
Classes used: active, inactive

compound=COC(=O)c1ccc([N+](=O)[O-])cc1Cl cat=inactive
compound=Cc1ccc(CSC(=N)N)cc1 cat=inactive
compound="CC(C)C1=CC2=CCC3[C@](C)(CCC[C@]3(C)C(=O)O)C2CC1 (stereo partly specified)" cat=inactive
compound=O=c1[nH]cnc2ccc(Br)cc12 cat=inactive
compound="NC(=O)c1cc[n+](CC2=C(C(=O)O)N3C(=O)C(NC(=O)C(c4ccccc4)S(=O)(=O)[O-])C3SC2)cc1 (stereo unspecified)" cat=inactive
compound="CN(Cc1cnc2nc(N)nc(N)c2n1)c1ccc(C(=O)NC(CCC(=O)O)C(=O)O)cc1 (stereo unspecified)" cat=inactive
compound=CCOC(=O)c1c(N=Cc2cc(Br)c(Br)cc2O)sc2c1CCCC2 cat=active
compound=Cc1ccc(CS/C(N)=N\N)cc1 cat=inactive
compound=COC(=O)c1cc(OC)c(OC)cc1NS(=O)(=O)c1ccc(C)cc1 cat=inactive
compound=Nc1nc2ncc(CNc3ccc(C(=O)N[C@@H](CCC(=O)O)C(=O)O)cc3)nc2c(=O)[nH]1 cat=inactive
compound=N=C(N)SCCc1cccc(CCSC(=N)N)c1 cat=inactive

###

- experimentSummary: chemical genetic growth profiling, strain panel (AID 1159580)
- testParameters: S. cerevisiae deletion strains, growth OD, locus YLR027C, strain aat2
The whole screen tested about 5,500 compounds, of which about 2,000 (36%) were called active. Inconclusive results (about 18%) are left out. Rule as the data show it: active = normalized growth mostly below about 0.91 (no sharp cut-off); inconclusive = no clear call, values can overlap the other calls; inactive = mostly above about 0.92. The list shows a part of the results.
Classes used: active, inactive

compound=S=c1[nH]c2ccccc2s1 cat=inactive
compound=CC1=C(/C=C/C(C)=C/C=C/C(C)=C/C=C/C=C(C)/C=C/C=C(C)/C=C/C2=C(C)CCCC2(C)C)C(C)(C)CCC1 cat=inactive
compound="CCN(CC)CCOC(=O)C(Cc1cccc2ccccc12)CC1CCCO1 (stereo not drawn)" cat=inactive
compound="CCC(COC(=O)c1cc(OC)c(OC)c(OC)c1)(c1ccccc1)N(C)C (stereo not drawn)" cat=inactive
compound=CC1=C(/C=C/C(C)=C/C=C/C(C)=C/C(=O)O)C(C)(C)CCC1 cat=inactive
compound="CC[C@@H](C(=O)[C@@H](C)[C@@H](O)[C@H](C)[C@@H]1O[C@@H]([C@@H](CC)C(=O)O)CC[C@@H]1C)[C@H]1OC2(C=C[C@@H](O)[C@]3(CC[C@@](C)([C@H]4CC[C@](O)(CC)[C@H](C)O4)O3)O2)[C@H](C)C[C@@H]1C (stereo partly drawn)" cat=active
compound="C[C@@H]1CC2C3CCC4=CC(=O)C=C[C@]4(C)[C@@]3(F)[C@@H](O)C[C@]2(C)[C@@]1(O)C(=O)COP(=O)(O)O (stereo partly drawn)" cat=inactive
compound=CC1=C(/C=C/C(C)=C/C=C/C(C)=C/CO)C(C)(C)CCC1 cat=inactive

###

- experimentSummary: chemical genetic growth profiling, strain panel (AID 1159580)
- testParameters: S. cerevisiae deletion strains, growth OD, locus YPL153C, strain RAD53
About 2,000 (36%) of roughly 5,500 compounds were called active. Inconclusive results (about 18%) are left out. No stated cut-off is given here; in the data, active means normalized growth mostly below about 0.91 (no sharp cut-off); inconclusive means no clear call, values can overlap the other calls; inactive means mostly above about 0.92. The list shows a part of the results.
Classes used: active, inactive

molecule=O=C1/C(=C/c2c(F)cccc2Cl)Cc2ccccc21 cat=inactive
molecule="O=C(NCc1ccco1)c1csc(C2COc3ccccc3O2)n1 (stereo unspecified)" cat=inactive
molecule="CCCCCCCC1CCC/C1=N/OC(=O)c1cccs1 (stereo unspecified)" cat=inactive
molecule=COc1cc(C(=O)Oc2c(Cl)cc(Cl)cc2C=Nc2cccc([N+](=O)[O-])c2)cc(OC)c1OC cat=active
molecule=Cc1nc(C(F)(F)F)c(C(=O)O/N=C(/N)c2ccc(Cl)cc2)s1 cat=inactive
molecule="CCCC1c2ccsc2CCN1C(=S)Nc1ccc(Cl)cc1Cl (stereo unspecified)" cat=inactive
molecule=CSc1cccc(N2C(=O)CC(c3c(Cl)cccc3Cl)CC2=O)c1 cat=inactive
molecule=O=C(CO/N=C\c1ccc(Cl)cc1Cl)NNC(=S)Nc1cc(Cl)ccc1Cl cat=inactive
molecule=COc1cc(C(=O)Oc2c(Cl)cc(Cl)cc2C=Nc2ccc([N+](=O)[O-])cc2C#N)cc(OC)c1OC cat=active
molecule=CCOC(=O)CCc1cc(N=Cc2cc(Br)ccc2O)c(O)c(N=Cc2cc(Br)ccc2O)c1 cat=inactive
molecule=CN(C)/C=C/C(=O)c1ccc(C#Cc2ccccc2)cc1 cat=inactive
molecule=O=C(Nc1ccc(Cl)cc1Cl)c1cnccc1C(F)(F)F cat=inactive
molecule=C/C(=N/OC(=O)Nc1ccc(Cl)cc1)c1ccc2c(c1)CCO2 cat=inactive
molecule=CC(=O)C(Sc1nc2ccccc2s1)C(C)=O cat=inactive
molecule=CCOC(=O)NC(=S)NC12CC3CC(CC(C3)C1)C2 cat=inactive
molecule=COc1cc(N=Cc2cc(Cl)cc(Cl)c2OC(=O)c2cc(OC)c(OC)c(OC)c2)c(OC)cc1Cl cat=active
molecule=O=C(CCSc1cccs1)Nc1cccc(C(F)(F)F)c1 cat=inactive
molecule=CCc1cc2c(cc1-c1csc(C/C(N)=N\O)n1)C(C)(C)CCC2(C)C cat=active
molecule="CC12CC[C@@H](O)CC1=CC[C@@H]1C2CCC2(C)C(=O)CC[C@@H]12 (stereo partly specified)" cat=inactive
molecule=CCCCCc1ccc(S(=O)(=O)Nc2ccc3c(c2)C(=O)OC3)cc1 cat=inactive
molecule=CSc1c(C#N)c(-c2ccc(Cl)cc2)nn1C(=O)c1ccccc1Cl cat=inactive

###

- experimentSummary: chemical genetic growth profiling, strain panel (AID 1159580);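 note: tested at 20 µM; growth read once vehicle control cultures reached saturation at 30 °C; 1 = growth at the plate median or of vehicle wells; lower values mean less growth of the strain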
- testParameters: S. cerevisiae deletion strains, growth OD, locus YOR119C, strain RIO1, active compounds read low
Among all 5,500 compounds or so, about 2,000 (36%) were called active. Roughly 18% stayed inconclusive and do not appear here. This is one part of the list.
readoutType: normalized growth

molecule=COc1cc(C(=O)Oc2c(Cl)cc(Cl)cc2C=Nc2cccc(C(F)(F)F)c2)cc(OC)c1OC readouttype="normalized growth" measuredresult=0.597
molecule=COc1cc(C(=O)Oc2c(Cl)cc(Cl)cc2C=Nc2ccc([N+](=O)[O-])cc2C#N)cc(OC)c1OC readouttype="normalized growth" measuredresult=0.549
molecule=O=C(CO/N=C\c1ccc(Cl)cc1Cl)NNC(=S)Nc1cc(Cl)ccc1Cl readouttype="normalized growth" measuredresult=1.05
molecule=N=C(N)SCc1nc(-c2ccc(Cl)cc2)no1 readouttype="normalized growth" measuredresult=1.05
molecule=CCOC(=O)c1c(N=Cc2cc(Br)c(Br)cc2O)sc2c1CCCC2 readouttype="normalized growth" measuredresult=0.63
molecule=Nc1cc(-c2ccc(OC(F)(F)F)cc2)nn1-c1ccc(Cl)c(Cl)c1 readouttype="normalized growth" measuredresult=0.528
molecule=COc1cc(N=Cc2cc(Cl)cc(Cl)c2OC(=O)c2cc(OC)c(OC)c(OC)c2)c(OC)cc1Cl readouttype="normalized growth" measuredresult=0.307
molecule=O=C(Nc1ccc(Cl)cc1Cl)c1cnccc1C(F)(F)F readouttype="normalized growth" measuredresult=1.01

###

- experimentSummary: chemical genetic growth profiling, strain panel (AID 1159580);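 note: tested at 20 µM; growth read once vehicle control cultures reached saturation at 30 °C; 1 = growth at the plate median or of vehicle wells; lower values mean less growth of the strain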
- testParameters: S. cerevisiae deletion strains, growth OD, locus YOR069W, strain VPS5
Among all 5,500 compounds or so, about 2,000 (36%) were called active. Not shown: some 18% with an inconclusive outcome. Cut-off read from the data, not from the text of the source: active = normalized growth mostly below about 0.91 (no sharp cut-off); inconclusive = no clear call, values can overlap the other calls; inactive = mostly above about 0.92. This is one part of the list.
Classes used: 1 (yes) = active, 0 (no) = inactive

molecule=C[C@@H]1C[C@@H]([C@H](O)CC2CC(=O)NC(=O)C2)C(=O)[C@@H](C)C1 cat="1 (yes)"
molecule=O=c1cccc2n1C[C@H]1CNCC2C1 cat="0 (no)"
molecule="CC(=O)OCC(=O)[C@@]12OC(C)(C)O[C@@H]1CC1C3C[C@H](F)C4=CC(=O)C=C[C@]4(C)[C@@]3(F)[C@@H](O)C[C@@]12C (some centres not stated)" cat="0 (no)"
molecule=O=C(O)c1cc(O)c(O)c(O)c1 cat="0 (no)"
molecule="O=C(O)CCCCCCCCCCCCC1C=CCC1 (configuration not stated)" cat="0 (no)"
molecule="O=C(O)CCCCC1SCC2NC(=O)NC21 (configuration not stated)" cat="0 (no)"
molecule=C[C@@]12C(=O)OC(=O)[C@]1(C)C1CCC2O1 cat="1 (yes)"
molecule=COc1ccccc1-c1cc(=O)c2c(OC)cccc2o1 cat="0 (no)"
molecule=O=C(O)c1cc(=O)c2c(OCC(O)COc3cccc4oc(C(=O)O)cc(=O)c34)cccc2o1 cat="0 (no)"
molecule=O=C(O)CNCP(=O)(O)O cat="0 (no)"
molecule=COS(C)(=O)=O cat="0 (no)"
molecule=O=C(O)P(=O)(O)O cat="0 (no)"

###

- experimentSummary: chemical genetic growth profiling, strain panel (AID 1159580);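 note: tested at 20 µM; growth read once vehicle control cultures reached saturation at 30 °C; 1 = growth at the plate median or of vehicle wells; lower values mean less growth of the strain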
- testParameters: S. cerevisiae deletion strains, growth OD, locus YMR307W, strain GAS1, active compounds read low
Screen size: about 5,500 compounds; about 2,000 (36%) were called active. Roughly 18% stayed inconclusive and do not appear here. This is one part of the list.
Binarize normalized growth at 1; below is Criterion met, at or above is Criterion not met.

molecule=CCOC(=O)c1cc(-c2ccc(N)cc2)oc1C cat="Criterion met"
molecule=Nc1nccs1 cat="Criterion not met"
molecule=O=C1O[C@@H](CO)[C@H](O)[C@@H](O)[C@@H]1O cat="Criterion not met"
molecule=C[C@@]12C(=O)OC(=O)[C@]1(C)C1CCC2O1 cat="Criterion not met"
molecule=CCOC(=O)c1ccc(N)cc1 cat="Criterion not met"
molecule=CCOP(=S)(OCC)Oc1ccc2c(C)c(Cl)c(=O)oc2c1 cat="Criterion met"
